Values from ChEMBL document CHEMBL1909294

As an illustration, consider measured HepSE_hepatitis for compounds on Hepatotoxicity.

compound	target.entity	HepSE_hepatitis
OC[C@H]1O[C@@H](O)[C@@H](F)[C@@H](O)[C@@H]1O	Hepatotoxicity	0
NC1=NC(=O)C(c2ccccc2)O1 (centres undefined)	Hepatotoxicity	1
COc1cc2nc(N(C)CCCNC(=O)C3CCCO3)nc(N)c2cc1OC (centres undefined)	Hepatotoxicity	0
NCCC(O)(P(=O)(O)O)P(=O)(O)O	Hepatotoxicity	0
Cc1cn([C@H]2C[C@H](N=[N+]=[N-])[C@@H](CO)O2)c(=O)[nH]c1=O	Hepatotoxicity	1
CNCCc1ccccn1	Hepatotoxicity	0
CCCN1CCCC[C@H]1C(=O)Nc1c(C)cccc1C	Hepatotoxicity	0
CC(=O)O[C@]1(C(C)=O)CC[C@H]2[C@@H]3C=C(C)C4=CC(=O)CC[C@]4(C)[C@H]3CC[C@@]21C [MEGESTROL ACETATE]	Hepatotoxicity	0
N[C@@H](Cc1cc(I)c(Oc2ccc(O)c(I)c2)c(I)c1)C(=O)O	Hepatotoxicity	0
C=CC[C@@H]1/C=C(\C)C[C@H](C)C[C@H](OC)[C@H]2O[C@@](O)(C(=O)C(=O)N3CCCC[C@H]3C(=O)O[C@H](/C(C)=C/[C@@H]3CC[C@@H](O)[C@H](OC)C3)[C@H](C)[C@@H](O)CC1=O)[C@H](C)C[C@@H]2OC [TACROLIMUS ANHYDROUS]	Hepatotoxicity	1
CC(C)Cc1ccc(C(C)C(=O)O)cc1 (centres undefined)	Hepatotoxicity	1
CCCc1nc(C)c2c(=O)[nH]c(-c3cc(S(=O)(=O)N4CCN(CC)CC4)ccc3OCC)nn12	Hepatotoxicity	0
CC(C)(C)NCC(O)COc1cccc2c1CC(O)C(O)C2 (centres undefined)	Hepatotoxicity	0
COCCc1ccc(OCC(O)CNC(C)C)cc1 (centres undefined)	Hepatotoxicity	1
Oc1ccc2c(c1)[C@@]13CCCC[C@@]1(O)[C@@H](C2)N(CC1CCC1)CC3	Hepatotoxicity	0
Clc1ccc2c(c1)C(c1ccccc1)=NCc1nncn1-2	Hepatotoxicity	0
Cc1ccc(N(CC2=NCCN2)c2cccc(O)c2)cc1	Hepatotoxicity	0
O=C(O[C@H]1C[C@H]2CC[C@@H](C1)[N+]21CCCC1)C(O)(c1ccccc1)c1ccccc1.[Cl-] [TROSPIUM CHLORIDE]	Hepatotoxicity	0
FCOC(C(F)(F)F)C(F)(F)F	Hepatotoxicity	1
CC1(C)S[C@@H]2[C@H](NC(=O)Cc3ccccc3)C(=O)N2[C@H]1C(=O)O	Hepatotoxicity	0
Cc1cccc(CN2CCN(C(c3ccccc3)c3ccc(Cl)cc3)CC2)c1 (centres undefined)	Hepatotoxicity	0
N[C@@H]1CON=C1O	Hepatotoxicity	0
N=C(N)NCCC[C@H](N)C(=O)O	Hepatotoxicity	0
C[C@H](CCC(=O)O)[C@H]1CC[C@H]2[C@@H]3[C@@H](O)C[C@@H]4C[C@H](O)CC[C@]4(C)[C@H]3CC[C@]12C	Hepatotoxicity	0
O=C(O)P(=O)(O)O	Hepatotoxicity	0
CC(COc1ccccc1)NC(C)C(O)c1ccc(O)cc1 (centres undefined)	Hepatotoxicity	0
CC(C)CN(C[C@@H](OP(=O)(O)O)[C@H](Cc1ccccc1)NC(=O)O[C@H]1CCOC1)S(=O)(=O)c1ccc(N)cc1	Hepatotoxicity	0
Cc1oncc1C(=O)Nc1ccc(C(F)(F)F)cc1 [LEFLUNOMIDE]	Hepatotoxicity	1
CNNCc1ccc(C(=O)NC(C)C)cc1	Hepatotoxicity	0
